Test system: CAKI-1 renal
Test: NCI tumour cell line growth inhibition, 48 h
parameter_measured: TGI (µM)
Expressed in µM, but write only the number.

{"smiles_representation": "Cc1ccc(S(=O)(=O)N2CCN(CCN(C)CCN3CCN(S(=O)(=O)c4ccc(C)cc4)CC3)CC2)cc1", "subject_of_test": "CAKI-1 renal", "observed": 40.5}

Consider the record given below.
Suppose we examine the compound COc1cc2nc(-c3ccc(C(F)(F)F)cc3)cc(OCCCN3CCOCC3)c2cc1OC ; what TGI value has been reported?
11.2

====

Quick reference: TGI of the listed items.
System: HCT-116 colon
Test: NCI tumour cell line growth inhibition, 48 h
Expressed in µM, but write only the number.

{"compound": "CCCCCCCCCCCCCCCCNc1nc(=O)n(C2CC(O)C(CO)O2)cc1F (stereo not given)", "unit_spec": "µM", "TGI": 23.5}
{"compound": "Cc1nc2ccc(C(F)(F)F)cc2nc1Nc1ccc(Cl)c(Cl)c1", "unit_spec": "µM", "TGI": 22.2}

Suppose we examine the compound CN1CCN(Cc2ccc(NC(=O)c3cncc(C#Cc4cnc(N)c5ccc(F)cc45)c3)cc2C(F)(F)F)CC1 ; what TGI value has been reported?
5.04

Suppose we examine the compound CCCCCCC/C=C/[C@H]1O[C@]23C(=O)C[C@@]4(C[C@@H](OC5OC(CO)C(O)C(O)C5O)C[C@@H]4[C@H]2C=C1C)OC3=O (stereo not given in full) ; what TGI value has been reported?
6.03

====

Test system: CAKI-1 renal
Assay: NCI tumour cell line growth inhibition, 48 h
parameter_measured: TGI

Take a look at these entries with their results.
{"compound": "COC(=O)C(C)Sc1nc2cc(Cl)ccc2s1 (stereo unspecified)", "subject_of_test": "CAKI-1 renal", "parameter_measured": "TGI", "observed": "> 100 µM"}
{"compound": "Cc1cc(S(=O)(=O)Nc2nc(N)nc(N3N=CCC3C)n2)c(S)cc1Cl (stereo unspecified)", "subject_of_test": "CAKI-1 renal", "parameter_measured": "TGI", "observed": "> 10 µM"}
{"compound": "CN1C2CC(=O)CC1[C@@H]1OC(c3ccccc3)O[C@H]21 (stereo partly specified)", "subject_of_test": "CAKI-1 renal", "parameter_measured": "TGI", "observed": "> 100 µM"}
{"compound": "O=C(Nc1cccc(-c2cn3ccccc3n2)c1)c1ccncc1", "subject_of_test": "CAKI-1 renal", "parameter_measured": "TGI", "observed": "> 100 µM"}
{"compound": "CCOC(=O)C(C(=O)Cc1ccccc1)c1ccccc1 (stereo unspecified)", "subject_of_test": "CAKI-1 renal", "parameter_measured": "TGI", "observed": "> 100 µM"}
{"compound": "COc1ccc(-c2c(C3=NCCN3)nnn2-c2ccccc2)cc1", "subject_of_test": "CAKI-1 renal", "parameter_measured": "TGI", "observed": "> 100 µM"}
{"compound": "CC(=O)O/N=C/c1ncccc1CO", "subject_of_test": "CAKI-1 renal", "parameter_measured": "TGI", "observed": "> 100 µM"}
{"compound": "Cc1ccc(C(=O)c2oc3ccc4c(C)cc(=O)oc4c3c2C)cc1", "subject_of_test": "CAKI-1 renal", "parameter_measured": "TGI", "observed": "> 100 µM"}
{"compound": "O=C(NNC(=S)Nc1ccccc1)c1csc(NC(=S)NC2CCCCC2)n1", "subject_of_test": "CAKI-1 renal", "parameter_measured": "TGI", "observed": "> 100 µM"}
{"compound": "NC(=O)COc1ccccc1", "subject_of_test": "CAKI-1 renal", "parameter_measured": "TGI", "observed": "> 100 µM"}

Suppose we examine the compound CCCCCCCCCCCCCCCCCCOCC(O)COP(=O)(O)OCC1OC(n2cc(F)c(=O)[nH]c2=O)CC1O (stereo unspecified) ; what TGI value has been reported?
26.8 µM

Suppose we examine the compound CN(C)c1ccc(/C=C2\Oc3cc(O)ccc3C2=O)cc1 ; what TGI value has been reported?
> 100 µM

Suppose we examine the compound CC1CC(c2ccccc2)=Nc2ccccc2S1(=O)=O (stereo unspecified) ; what TGI value has been reported?
48.5 µM

Suppose we examine the compound CCOC(=O)[C@@H](C)C[C@H](Cc1ccccc1)NC(=O)c1csc([C@@H](C[C@H](C(C)C)N(C)C(=O)[C@@H](NC(=O)[C@H]2C[C@H](O[Si](C)(C)C(C)(C)C)CCN2C)C(C)C)OC(C)=O)n1 ; what TGI value has been reported?
> 8.33 µM

Suppose we examine the compound Cc1cc2nc3c(=O)n(C)c(=O)nc-3n(-c3ccc(Cl)cc3)c2cc1C ; what TGI value has been reported?
48.8 µM

Suppose we examine the compound O=C(c1ccco1)N(C(=S)OCc1ccccn1)c1ccccc1 ; what TGI value has been reported?
> 100 µM

Suppose we examine the compound CC(C)c1ccc(Cc2cnc(NC(=O)c3cc(Br)cs3)s2)cc1 ; what TGI value has been reported?
> 100 µM

Suppose we examine the compound COc1cc(C2C3=C(COC3=O)OC(C)(C)Oc3cc4c(cc32)OCO4)cc(OC)c1OC (stereo unspecified) ; what TGI value has been reported?
> 100 µM

Suppose we examine the compound C=CCn1c(C)nc2cc(Nc3nc(Nc4ccc5nc(C)n(CC=C)c5c4)c4ccccc4n3)ccc21 ; what TGI value has been reported?
3.03 µM

Suppose we examine the compound O=C(N=Nc1ccccc1Br)NNc1ccccc1Br ; what TGI value has been reported?
> 100 µM

Suppose we examine the compound COc1cc2c(cc1OCc1ccccc1)N=C[C@@H]1C/C(=C/C(=O)NCCCN3C(=O)c4cccc5cccc(c45)C3=O)CN1C2=O ; what TGI value has been reported?
19.7 µM

Origin of the recorded values: PubChem BioAssay (NCI)
